Biological target: recombinant human neuronal calcium channel α1B-1α2bβ1-3 (human)
Experiment: 125I-ω-CgTx GVIA saturation binding to transiently transfected HEK293 cells
reportedMetric: pKd
In simple prose, pKd is minus the logarithm base ten of a concentration in moles per litre.

Item CKSPGSSCSPTSYNCCRSCNPYTKRCYG (modifications not checked) [125I-ω-CgTx GVIA, P01522 46-73] has what recorded pKd?
10.27

Data credit: patent US20070244297A1
